Entry source: the RNAGym collection of RNA variant scans (doi:10.1073/pnas.2313332121)

B1: TPR t1 (parent)
chain: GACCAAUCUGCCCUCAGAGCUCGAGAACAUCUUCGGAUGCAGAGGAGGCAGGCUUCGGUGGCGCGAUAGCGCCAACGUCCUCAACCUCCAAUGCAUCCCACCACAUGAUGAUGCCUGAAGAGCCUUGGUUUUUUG

Variants of: B1
Experimental protocol: polymerase ribozyme fitness, log enrichment relative to wild type (log ratio); higher = more active; in vitro selection for triplet polymerase activity
As shown below, each of these variants has a reported polymerase ribozyme fitness (log ratio) value.
Keep it simple and answer with nothing but the number.

- C8U G63A C102A U106C G113A U130G: -5.25
- G117A U130G: -1.63
- C12G C40U A43U A83U A105C C124G: -5.47
- C34A G60U: -3.73
- C34A C101U: -2.53
- U7C C8A C62A: -0.194
- C4U C11U A37U G71C: -1.4
- G69U C86G: 0.0893
- C12G G51C: -3.21
- U7C U21G G45C G71U: -2.5

Per the record, C12U C13U A50U U78G U131C has polymerase ribozyme fitness (log ratio) of -0.743
